Target: T1, Human Notch4-NRR domain Fc fusion protein (human, UniProt Q99466 1046-1445, limits assumed)
T1 construct: Expressed in a CHO cell line, used from culture supernatant; 1 is named; also called Human Notch4-NRR Fusion Protein; not shown: Fc
T1 sequence: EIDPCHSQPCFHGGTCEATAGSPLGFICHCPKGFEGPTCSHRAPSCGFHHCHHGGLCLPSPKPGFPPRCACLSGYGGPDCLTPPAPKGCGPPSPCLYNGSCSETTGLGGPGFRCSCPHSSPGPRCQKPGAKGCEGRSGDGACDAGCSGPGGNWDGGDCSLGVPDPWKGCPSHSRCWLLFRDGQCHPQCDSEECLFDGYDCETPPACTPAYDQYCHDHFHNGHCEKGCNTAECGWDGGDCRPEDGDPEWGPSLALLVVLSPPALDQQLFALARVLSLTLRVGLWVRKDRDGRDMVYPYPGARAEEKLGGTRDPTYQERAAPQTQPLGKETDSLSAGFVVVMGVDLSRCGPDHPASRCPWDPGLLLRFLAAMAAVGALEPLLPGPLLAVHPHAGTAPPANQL
Test: SPR (Biacore) as for Table 30; Notch4-NRR-Fc captured, antibody injected; averaged, N=2
Catalogue of kon readings, one per entry.
The response must be a number in M⁻¹ s⁻¹ with no trailing unit.

// known answers, use as guide
HA1L5 (antibody, human IgG2, kappa, V domains shown, Humanized IgG2 (V234A, G237A)/κ; also called No. 25) VH: EVQLVESGGGLVQPGGSLRLSCAASGFTFSSYGMSWVRQAPGKGLEYVSTINSNGGRTYYANSVKGRFTISRDNSKNTLYLQMGSLRAEDMAVYYCARDQGFAYWGQGTLVTVSS VL: DIQMTQSPSSLSASVGDRVTITCKASQDVGTAVAWYQQKPGKSPKLLIYWASTRHTGVPSRFSGSGSGTDFTLTISSLQPEDVATYFCQQYSSYPWTFGQGTKVEIKR ... 6.36e+06
HK1L4 (antibody, human IgG2, kappa, V domains shown, Humanized IgG2 (V234A, G237A)/κ; also called No. 9) VH: EVQLVESGGGLVQPGGSLRLSCAASGFTFSSYGMSWVRQAPGKGLEYVSTINSNGGRTYYPDSVKGRFTISRDNSKNTLYLQMGSLRAEDMAVYYCARDQGFAYWGQGTLVTVSS VL: EIVMTQSPATLSVSPGERATLSCKASQDVGTAVAWYQQKPGQAPRLLIYWASTRHTGIPARFSGSGSGTEFTLTISSLQSEDFAVYFCQQYSSYPWTFGQGTKVEIKR ... 2.78e+06
HA1L2 (antibody, human IgG2, kappa, V domains shown, Humanized IgG2 (V234A, G237A)/κ; also called No. 22) VH: EVQLVESGGGLVQPGGSLRLSCAASGFTFSSYGMSWVRQAPGKGLEYVSTINSNGGRTYYANSVKGRFTISRDNSKNTLYLQMGSLRAEDMAVYYCARDQGFAYWGQGTLVTVSS VL: DIQMTQSPSSLSASVGDRVTITCKASQDVGTAVAWYQQKPGKVPKLLIYWASTRHTGVPSRFSGSGSGTDFTLTISSLQPEDVATYFCQQYSSYPWTFGQGTKVEIKR ... 649000

What measured kon goes with HK1L3 (antibody, human IgG2, kappa, V domains shown, Humanized IgG2 (V234A, G237A)/κ; also called No. 8) VH: EVQLVESGGGLVQPGGSLRLSCAASGFTFSSYGMSWVRQAPGKGLEYVSTINSNGGRTYYPDSVKGRFTISRDNSKNTLYLQMGSLRAEDMAVYYCARDQGFAYWGQGTLVTVSS VL: EIVMTQSPATLSVSPGERATLSCKASQDVGTAVAWYQQKPGQAPRLLIYWASTRHTGIPARFSGSGSGTEFTLTISSLQSEDFAVYYCQQYSSYPWTFGQGTKVEIKR ? 3.71e+06
